Listing: furin cleavage Z-score of selected sequences
target: furin, P09958;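 also: purified furin at 1:10 enzyme:substrate in 50 mM HEPES pH 7.5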
Sequence (P09958 whole entry): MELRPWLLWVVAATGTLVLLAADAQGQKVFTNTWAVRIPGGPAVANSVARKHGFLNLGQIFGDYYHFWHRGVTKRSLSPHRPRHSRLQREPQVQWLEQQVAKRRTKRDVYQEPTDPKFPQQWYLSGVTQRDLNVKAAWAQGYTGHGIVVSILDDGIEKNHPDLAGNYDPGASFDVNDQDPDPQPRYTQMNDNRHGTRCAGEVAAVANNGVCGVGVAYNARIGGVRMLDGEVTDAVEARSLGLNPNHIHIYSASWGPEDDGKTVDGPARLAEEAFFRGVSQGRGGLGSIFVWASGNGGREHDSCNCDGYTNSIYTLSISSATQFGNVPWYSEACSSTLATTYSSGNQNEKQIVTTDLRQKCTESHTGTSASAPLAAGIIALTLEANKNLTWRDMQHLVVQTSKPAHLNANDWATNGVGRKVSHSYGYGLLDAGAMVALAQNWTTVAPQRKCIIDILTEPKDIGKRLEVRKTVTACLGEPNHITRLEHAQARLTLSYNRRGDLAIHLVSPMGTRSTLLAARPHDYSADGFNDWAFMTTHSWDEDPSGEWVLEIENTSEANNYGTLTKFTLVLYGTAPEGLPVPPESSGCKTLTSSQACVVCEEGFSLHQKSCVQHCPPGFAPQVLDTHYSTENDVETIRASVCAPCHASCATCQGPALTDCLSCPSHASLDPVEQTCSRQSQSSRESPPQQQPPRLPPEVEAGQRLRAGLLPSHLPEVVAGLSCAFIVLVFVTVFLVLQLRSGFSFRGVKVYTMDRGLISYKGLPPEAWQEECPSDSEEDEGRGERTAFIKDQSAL
measurement.protocol: furin cleavage Z-score vs untreated control; higher = more cleavage, active = 3.5 or more, inactive = 1 or less, 8 variable residues between constant flanks
condition.set: 15 min
This is one part of the list. The true hit rate is not given.
Give only the figure.

> print(dat)
               residue.sequence  measured.value
1  CARKRRCSLSAGNASASA [FS-1829]            7.32
2   CAVQEDAASLAGNASASA [HC1535]          -0.428
3   CAEFVVCCSMAGNASASA [HC2127]           0.711
4  CARSRRNVVMAGNASASA [FS-2382]             8.6
5    CAPLRDWAHNAGNASASA [HC638]           0.256
6      CANKRRGGTAAGNASASA [WN5]          -0.365

Query string: Fill in: furin cleavage Z-score of CARRLRDKRRAGNASASA [FS-713] is ___
Result string: 2.01

Query string: // lookup furin cleavage Z-score for CARRRRSLPRAGNASASA [FS-2797]
Result string: 5.79

Query string: Given CAMEECHQHLAGNASASA [HC29] , state its recorded furin cleavage Z-score.
Result string: 1.55

Query string: Any idea what furin cleavage Z-score was measured for CARRRRSLRRAGNASASA [FS-2454] ?
Result string: 3.5

Query string: Query: furin cleavage Z-score; subject: CAEAVVCCSMAGNASASA [HC2123]
Result string: 0.759

Query string: Endpoint output: furin cleavage Z-score of CASTPCSAHTAGNASASA [HC2578] . Value?
Result string: -2.17

Query string: Give its furin cleavage Z-score value. Item: CARRRRSLPGAGNASASA [FS-1788]
Result string: 8.64

Query string: Given CARSRRCTCFAGNASASA [FS-2187] , state its recorded furin cleavage Z-score.
Result string: -0.988

Query string: Which furin cleavage Z-score value is on record for CAVSCQRGYKAGNASASA [HC1165] ?
Result string: 0.637

FYI, the data here is from the supplement of paper PMC3545927.
